Molecular target: F508delCFTR (Homo sapiens, UniProt P13569, DEL508-508)
Construct: expressed in transfected cells; host or cells: CFBE41o- human lung-derived epithelial cells (CFBE41o-F508delCFTR-HRP), doxycycline-inducible
Sequence (P13569 with tags, fused parts or gaps DEL508-508): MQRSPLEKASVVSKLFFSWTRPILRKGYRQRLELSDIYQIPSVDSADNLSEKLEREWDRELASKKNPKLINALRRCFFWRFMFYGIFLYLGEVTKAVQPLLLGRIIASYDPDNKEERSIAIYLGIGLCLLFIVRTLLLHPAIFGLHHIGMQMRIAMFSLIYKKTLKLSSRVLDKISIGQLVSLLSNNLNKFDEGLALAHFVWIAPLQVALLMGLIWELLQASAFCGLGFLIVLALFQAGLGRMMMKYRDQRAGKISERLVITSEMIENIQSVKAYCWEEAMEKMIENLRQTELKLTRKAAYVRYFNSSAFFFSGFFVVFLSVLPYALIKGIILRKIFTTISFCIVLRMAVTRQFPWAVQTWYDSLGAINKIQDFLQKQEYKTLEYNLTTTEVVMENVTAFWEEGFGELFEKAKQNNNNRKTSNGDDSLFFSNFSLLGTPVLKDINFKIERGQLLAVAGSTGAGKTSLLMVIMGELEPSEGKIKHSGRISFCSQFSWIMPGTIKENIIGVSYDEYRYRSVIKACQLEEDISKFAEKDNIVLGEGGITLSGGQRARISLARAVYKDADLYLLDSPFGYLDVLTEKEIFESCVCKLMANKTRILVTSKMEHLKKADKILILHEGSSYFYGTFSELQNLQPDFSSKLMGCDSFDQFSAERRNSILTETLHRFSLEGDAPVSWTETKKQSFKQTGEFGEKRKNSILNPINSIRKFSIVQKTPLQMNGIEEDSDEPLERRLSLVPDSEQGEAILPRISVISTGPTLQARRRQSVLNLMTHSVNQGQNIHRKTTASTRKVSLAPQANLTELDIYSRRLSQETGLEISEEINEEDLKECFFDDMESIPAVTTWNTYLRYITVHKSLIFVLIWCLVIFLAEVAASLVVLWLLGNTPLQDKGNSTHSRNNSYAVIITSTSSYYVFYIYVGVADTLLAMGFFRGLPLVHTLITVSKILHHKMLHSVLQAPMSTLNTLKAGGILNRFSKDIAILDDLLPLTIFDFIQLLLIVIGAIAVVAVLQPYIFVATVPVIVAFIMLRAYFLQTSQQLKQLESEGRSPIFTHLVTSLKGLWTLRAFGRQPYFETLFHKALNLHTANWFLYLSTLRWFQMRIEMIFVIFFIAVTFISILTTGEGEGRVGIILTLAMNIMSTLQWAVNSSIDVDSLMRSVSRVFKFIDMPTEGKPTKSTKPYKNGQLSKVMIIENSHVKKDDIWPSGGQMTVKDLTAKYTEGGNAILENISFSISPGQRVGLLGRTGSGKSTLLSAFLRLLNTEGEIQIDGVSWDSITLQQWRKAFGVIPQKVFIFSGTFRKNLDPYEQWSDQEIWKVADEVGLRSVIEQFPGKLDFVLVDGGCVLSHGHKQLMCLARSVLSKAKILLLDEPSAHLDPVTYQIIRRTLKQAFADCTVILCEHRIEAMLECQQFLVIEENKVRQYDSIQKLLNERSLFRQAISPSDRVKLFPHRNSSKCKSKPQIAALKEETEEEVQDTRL
Test: Cell Surface Expression-Horse Radish Peroxidase (CSE-HRP) assay, test compound with co-corrector
Assay type: cell-based
Conditions: with 2 μM co-corrector
Listed next: entries and their corresponding EC50.

Worked examples follow.
COc1cccc2c1CCC2C(=O)NS(=O)(=O)c1ccccc1[N+](=O)[O-] (centres unmarked) : 3 to 10 µM
COc1ncc(Br)c2c1[C@@H](C(=O)NS(=O)(=O)c1cccc3ccccc13)CCC2 : < 3 µM
CCC1(C(=O)NS(=O)(=O)c2cccc3ccccc23)CCCc2cccc(Cl)c21 (centres unmarked) : < 3 µM
CCC1(C(=O)NS(=O)(=O)c2ccc3ccccc3c2)CCc2c(Cl)cccc21 (centres unmarked) : 3 to 10 µM
COc1cccc2c1CCC2C(=O)NS(=O)(=O)c1ccc2cc(O)ccc2c1 (centres unmarked) : ≥ 10 µM
Cc1ccc2c(c1)CCC2(C)C(=O)NS(=O)(=O)c1ccccc1C (centres unmarked) : 3 to 10 µM
COc1ccc(OC)c2c1CCCC2C(=O)NS(=O)(=O)c1cccc2ccccc12 (centres unmarked) : < 3 µM
O=C(NS(=O)(=O)c1cccc2ccccc12)C1(CCn2cccn2)CCc2c(Cl)cccc21 (centres unmarked) : < 3 µM

What value of measured EC50 is listed for CCC1(C(=O)NS(=O)(=O)c2ccccc2OCC(F)F)CCc2c(Cl)cccc21 (centres unmarked) ? < 3 µM

What value of measured EC50 is listed for "C[C@]1(C(=O)NS(=O)(=O)c2cccc3ccccc23)CCc2c1ccc1c2OCO1" ? 3 to 10 µM

What value of measured EC50 is listed for COc1ccc(C2CCC2)c2c1C(C(=O)NS(=O)(=O)c1cccc3ccccc13)CC2 (centres unmarked) ? < 3 µM

What value of measured EC50 is listed for COc1ccc(C)c2c1C(C(=O)NS(=O)(=O)c1cccc3ccccc13)CC2 (centres unmarked) ? < 3 µM

What value of measured EC50 is listed for COc1ccc(Cl)c2c1CC[C@H]2C(=O)NS(=O)(=O)c1cccc2ccccc12 (single isomer, unassigned) ? < 3 µM

What value of measured EC50 is listed for COc1cccc2c1CCC2C(=O)NS(=O)(=O)c1ccc(CN(C)C)cc1 (centres unmarked) ? ≥ 10 µM

====

Listed next: entries and their corresponding EC50.
Biological target: F508delCFTR (Homo sapiens, UniProt P13569, DEL508-508)
Construct: expressed in transfected cells; host or cells: CFBE41o- human lung-derived epithelial cells (CFBE41o-F508delCFTR-HRP), doxycycline-inducible
Assay: Cell Surface Expression-Horse Radish Peroxidase (CSE-HRP) assay, test compound without co-corrector
Format: cell-based
Settings: test compound without co-corrector

What value of measured EC50 is listed for COc1ccc(Br)c2c1[C@@H](C(=O)NS(=O)(=O)c1cccc3ncccc13)CCC2 (single isomer, unassigned) ? 3 to 10 µM

What value of measured EC50 is listed for CCOc1ccc2nc(S(=O)(=O)NC(=O)C3CCc4c(OC)cccc43)sc2c1 (centres unmarked) ? ≥ 10 µM

What value of measured EC50 is listed for COc1cccc2c1CCCC2(Cc1ccccc1)C(=O)NS(=O)(=O)c1cccc2ccccc12 (centres unmarked) ? < 3 µM

What value of measured EC50 is listed for CCOc1ccc2c(S(=O)(=O)NC(=O)C3CCc4c(Br)ccc(OC)c43)cccc2n1 (centres unmarked) ? 3 to 10 µM

What value of measured EC50 is listed for "COc1ccc(Br)c2c1CC[C@@H]2C(=O)NS(=O)(=O)c1cccc2ccccc12" ? 3 to 10 µM

What value of measured EC50 is listed for COc1ccc(Br)c2c1C(C(=O)NS(=O)(=O)c1cccc3ncccc13)CC2 (centres unmarked) ? < 3 µM

What value of measured EC50 is listed for CCC1(C(=O)NS(=O)(=O)c2ccccc2OCC(F)F)CCc2c(Cl)cccc21 (centres unmarked) ? < 3 µM

What value of measured EC50 is listed for COc1cccc2c1CCCC2C(=O)NS(=O)(=O)c1cccc2cccnc12 (centres unmarked) ? 3 to 10 µM

====

Target: F508delCFTR (Homo sapiens, UniProt P13569, DEL508-508)
Construct: expressed in transfected cells; host or cells: CFBE41o- human lung-derived epithelial cells (CFBE41o-F508delCFTR-HRP), doxycycline-inducible
Assay: Cell Surface Expression-Horse Radish Peroxidase (CSE-HRP) assay, test compound with co-corrector
Type: cell-based
Settings: with 2 μM co-corrector
ENDPOINT_LABEL: EC50

Worked examples follow.
COc1ccc(C2CCC2)c2c1C(C(=O)NS(=O)(=O)c1cccc3cnn(C)c13)CC2 (stereo not drawn) : < 3 µM
CCC1(C(=O)NS(=O)(=O)c2cccc3cnccc23)CCc2c(Cl)cccc21 (stereo not drawn) : < 3 µM

Now for another entry.
What value of measured EC50 is listed for "COc1ccc(C2CCC2)c2c1[C@@H](C(=O)NS(=O)(=O)c1cccc3ncccc13)CC2" ? < 3 µM

====

Biological target: F508delCFTR (Homo sapiens, UniProt P13569, DEL508-508)
Construct: expressed in transfected cells; host or cells: CFBE41o- human lung-derived epithelial cells (CFBE41o-F508delCFTR-HRP), doxycycline-inducible
Experiment: Cell Surface Expression-Horse Radish Peroxidase (CSE-HRP) assay, test compound without co-corrector;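 as to Emax: percent of on-plate 2 µM positive control corrector response over DMSO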
Type: cell-based
Conditions: maximum at any tested concentration, normalized to on-plate positive control, without co-corrector
ENDPOINT_LABEL: Emax

CCC1(C(=O)NS(=O)(=O)c2c(OC)cccc2OC)CCc2c(Cl)cccc21 (stereo not drawn) : < 50%

What value of measured Emax is listed for Cc1ccccc1S(=O)(=O)NC(=O)C1CCc2c(-c3ccncc3F)cccc21 (stereo not drawn) ? < 50%

What value of measured Emax is listed for O=C(NS(=O)(=O)c1cccc2ccccc12)C1CCc2c(Br)ccc(O)c21 (stereo not drawn) ? < 50%

What value of measured Emax is listed for CCC1(C(=O)NS(=O)(=O)c2cccc(N(C)CCOC)c2C)CCc2c(Cl)cccc21 (stereo not drawn) ? 50 to 150%

What value of measured Emax is listed for CCC1(C(=O)NS(=O)(=O)C2(C)CC2)CCc2c(Cl)cccc21 (stereo not drawn) ? < 50%

What value of measured Emax is listed for COc1ccc(-c2ccc(C)nc2)c2c1C(C(=O)NS(=O)(=O)c1cccc3ccccc13)CCC2 (stereo not drawn) ? < 50%

What value of measured Emax is listed for CCC1(C(=O)NS(=O)(=O)c2cnccc2N2CCN(C(C)C)CC2)CCc2c(Cl)cccc21 (stereo not drawn) ? < 50%

What value of measured Emax is listed for COc1ccc(Br)c2c1C(C(=O)NS(=O)(=O)c1cccnc1OC)CC2 (stereo not drawn) ? 50 to 150%

What value of measured Emax is listed for Cc1cncc(-c2cccc3c2CCC3C(=O)NS(=O)(=O)c2ccccc2C)c1 (stereo not drawn) ? < 50%

====

Molecular target: F508delCFTR (Homo sapiens, UniProt P13569, DEL508-508)
Construct: expressed in transfected cells; host or cells: CFBE41o- human lung-derived epithelial cells (CFBE41o-F508delCFTR-HRP), doxycycline-inducible
Assay: Cell Surface Expression-Horse Radish Peroxidase (CSE-HRP) assay, test compound with co-corrector;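 as to Maximum % activity (with co-corrector): percent of 2 µM positive control corrector over DMSO; co-corrector is that same compound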
Assay type: cell-based
Details: maximum at any tested concentration, normalized to positive control, with 2 μM co-corrector
ENDPOINT_LABEL: Maximum % activity (with co-corrector)

Worked examples follow.
O=C(NS(=O)(=O)c1cccc2ccccc12)C1CCCc2c1ccc1c2OCCO1 (stereo not drawn) [II-52] : +++ (≥350)
Cc1nn(C)c(C)c1S(=O)(=O)NC(=O)C1CCc2c(Cl)cccc21 (stereo not drawn) [III-4] : + (<150)
CCC1(C(=O)NS(=O)(=O)N2CCCc3ccccc32)CCc2c(Cl)cccc21 (stereo not drawn) [Example II-80] : + (<150)
CCOc1ccc(Br)c2c1CCCC2C(=O)NS(=O)(=O)c1cccc2ccccc12 (stereo not drawn) [Example I-32] : +++ (≥350)
COc1ccc2c(c1)[C@](C)(C(=O)NS(=O)(=O)c1cccc3ccccc13)CC2 [Example I-23] : +++ (≥350)

Now for another entry.
What value of measured Maximum % activity (with co-corrector) is listed for COc1ccc(C2CCC2)c2c1[C@@H](C(=O)NS(=O)(=O)c1cccc3ccccc13)C2 (single isomer, unassigned) [Example I-106] ? +++ (≥350)

====

Biological target: F508delCFTR (Homo sapiens, UniProt P13569, DEL508-508)
Construct: expressed in transfected cells; host or cells: CFBE41o- human lung-derived epithelial cells (CFBE41o-F508delCFTR-HRP), doxycycline-inducible
Assay: Cell Surface Expression-Horse Radish Peroxidase (CSE-HRP) assay, test compound with co-corrector;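 as to Maximum % activity (with co-corrector): percent of 2 µM positive control corrector over DMSO; co-corrector is that same compound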
Format: cell-based
Settings: maximum at any tested concentration, normalized to on-plate positive control, with 2 μM co-corrector
ENDPOINT_LABEL: Maximum % activity (with co-corrector)

Worked examples follow.
O=C(NS(=O)(=O)c1cccc2ccccc12)C1(CCN2CCCC2)CCc2c(Cl)cccc21 (centres unmarked) : + (<150)
CCC1(C(=O)NS(=O)(=O)c2cccc(Cl)c2C(=O)OC)CCc2c(Cl)cccc21 (centres unmarked) : + (<150)
COc1ccc(Br)c2c1C(C(=O)NS(=O)(=O)c1cccc3c(C(=O)O)cccc13)CC2 (centres unmarked) : ++ (≥150 and <350)
CCC1(C(=O)NS(=O)(=O)c2c(C)cccc2C(F)(F)F)CCc2c(Cl)cccc21 (centres unmarked) : + (<150)
COc1ccc(CN2CCCC2)c2c1C(C(=O)NS(=O)(=O)c1cccc3ccccc13)CC2 (centres unmarked) : + (<150)
N#CC1(C(=O)NS(=O)(=O)c2cccc3ccccc23)CCCc2cccc(Cl)c21 (centres unmarked) : ++ (≥150 and <350)
Cc1ccc(-c2cccc3c2CCC3C(=O)NS(=O)(=O)c2ccccc2C)o1 (centres unmarked) : ++ (≥150 and <350)
COc1ccc(Br)c2c1C(C(=O)NS(=O)(=O)c1cccc(N)n1)CC2 (centres unmarked) : +++ (≥350)

What value of measured Maximum % activity (with co-corrector) is listed for COc1ccc(Br)c2c1C(C(=O)NS(=O)(=O)c1cccnc1N)CC2 (centres unmarked) ? +++ (≥350)

What value of measured Maximum % activity (with co-corrector) is listed for CCC1(C(=O)NS(=O)(=O)c2cccc(C#N)c2)CCc2c(Cl)cccc21 (centres unmarked) ? ++ (≥150 and <350)

What value of measured Maximum % activity (with co-corrector) is listed for COC(=O)c1ccc(OC)c2c1CCC2C(=O)NS(=O)(=O)c1cccc2ccccc12 (centres unmarked) ? ++ (≥150 and <350)
